// values below are reported abundance fitness
B1: Syntaxin-binding protein 4, residues 493 to 538; numbered along this chain, Q6ZWJ1 (parent)
chain: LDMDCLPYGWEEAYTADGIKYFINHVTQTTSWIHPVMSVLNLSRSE

Variants of: B1
ASSAY COMMENT: abundance fitness (aPCA) (normalised: wild type 0, dead -1); higher = more abundant; growth selection in yeast, the domain comes from the species named
MEASUREMENT CONDITIONS: Homo sapiens
# print the numeric value only

See these solved cases before continuing.
1) I19W -0.566
2) V26R -0.096
3) Y21E -0.953
4) H25N 0.599
5) W32D -0.539
6) Y14N -0.994
7) T30G -0.632
8) R44S 0.096

[Q] Which abundance fitness value is on record for "L42D" ?
[A] 0.022

[Q] Entry "T27S" : reported abundance fitness = ?
[A] -0.348

[Q] Need abundance fitness of "K20Y" , thanks.
[A] -0.783

[Q] Which abundance fitness reading was recorded for the variant "Y14Q" ?
[A] -0.305

[Q] Query: abundance fitness; subject: "N41D"
[A] 0.174
